cytotoxicity cell line H values by entry
- Test system: Human hepatocytes (HepaRG cells)
- experimental.protocol: Human cytotoxicity assay in vitro (CellTiter-Glo), hepatocytes
- Type: cell-based
- test.conditions: hepatocyte cytotoxicity score; 24 h exposure
I only need the number, thanks.

Cc1[nH]c(-c2cc(C)n(-c3ccc4c(c3)CCC4)c2C)nc1-c1ccccc1 :: 2

cytotoxicity cell line H of `Cc1[nH]c(-c2ccc(-c3ccccc3OC(F)(F)F)o2)nc1-c1ccc(F)cc1` , assay on Human hepatocytes (HepaRG cells), is 3

Measured on Human hepatocytes (HepaRG cells), `Cc1nc(-c2ccc(-c3ccccc3OC(F)(F)F)o2)[nH]c1-c1ccccc1Cl` has a documented cytotoxicity cell line H of 3

Result for `Cc1nc(-c2ccc(-c3ccccc3OC(F)(F)F)o2)[nH]c1-c1cccc(Cl)c1` , tested on Human hepatocytes (HepaRG cells), cytotoxicity cell line H: 3

Given the compound `Cc1[nH]c(-c2cc(C)n(-c3cccc(C(F)(F)F)c3)c2C)nc1-c1ccccc1` and test system Human hepatocytes (HepaRG cells), the measured cytotoxicity cell line H is 3

Case `Cc1[nH]c(-c2ccc(-c3ccc(OC(F)(F)F)cc3)o2)nc1-c1ccc(Cl)cc1` , Human hepatocytes (HepaRG cells), cytotoxicity cell line H recorded as 2

###

- Test system: Human hepatocytes (HepaRG cells)
- experimental.protocol: Human cytotoxicity assay in vitro (CellTiter-Glo), hepatocytes
- Format: cell-based
- test.conditions: hepatocyte cytotoxicity score; 24 h exposure
Below, each entry is listed with its recorded cytotoxicity cell line H.

Worked cases, cytotoxicity cell line H given:
FC(F)(F)Oc1ccccc1-c1ccc(-c2nc(Cl)c(-c3ccccc3)[nH]2)o1 [Compound 64] :: 3
Cc1nc(-c2ccc(-c3ccc(Cl)c(OC(F)(F)F)c3)o2)[nH]c1-c1ccc(Cl)cc1 [Compound 44] :: 2
Cc1nc(-c2ccc(-c3ccc(Cl)c(OC(F)(F)F)c3)o2)[nH]c1-c1ccc(F)cc1 [Compound 43] :: 3
Cc1[nH]c(-c2cc(C)n(-c3ccc(C(C)C)cc3)c2C)nc1-c1ccccc1 [Compound 58] :: 3

Please fill in: cytotoxicity cell line H reported for FC(F)(F)Oc1ccccc1-c1ccc(-c2ncc(-c3ccccc3)[nH]2)o1 [Compound 63] = 2

Note to self: cytotoxicity cell line H recorded for Cc1[nH]c(-c2coc(-c3ccccc3C(F)(F)F)c2)nc1-c1ccccc1 [Compound 72] was 3

Item: Cc1[nH]c(-c2ccc(-c3ccc(OC(F)(F)F)cc3Cl)o2)nc1-c1ccc(F)cc1 [Compound 51] | cytotoxicity cell line H: 3

Form: molecule = Cc1[nH]c(-c2cc(C)n(-c3ccc(F)c(F)c3F)c2C)nc1-c1ccccc1 [Compound 10] ; cytotoxicity cell line H = 3

Where these numbers come from: patent US10314820B2
